Reference for the values: patent US20220144812A1

Target: CREBBP (1084-1701) (Homo sapiens, UniProt Q92793)
Construct: measured in the following biochemical assay using CREBBP (1084-1701); purchased
Sequence (Q92793 1084-1701): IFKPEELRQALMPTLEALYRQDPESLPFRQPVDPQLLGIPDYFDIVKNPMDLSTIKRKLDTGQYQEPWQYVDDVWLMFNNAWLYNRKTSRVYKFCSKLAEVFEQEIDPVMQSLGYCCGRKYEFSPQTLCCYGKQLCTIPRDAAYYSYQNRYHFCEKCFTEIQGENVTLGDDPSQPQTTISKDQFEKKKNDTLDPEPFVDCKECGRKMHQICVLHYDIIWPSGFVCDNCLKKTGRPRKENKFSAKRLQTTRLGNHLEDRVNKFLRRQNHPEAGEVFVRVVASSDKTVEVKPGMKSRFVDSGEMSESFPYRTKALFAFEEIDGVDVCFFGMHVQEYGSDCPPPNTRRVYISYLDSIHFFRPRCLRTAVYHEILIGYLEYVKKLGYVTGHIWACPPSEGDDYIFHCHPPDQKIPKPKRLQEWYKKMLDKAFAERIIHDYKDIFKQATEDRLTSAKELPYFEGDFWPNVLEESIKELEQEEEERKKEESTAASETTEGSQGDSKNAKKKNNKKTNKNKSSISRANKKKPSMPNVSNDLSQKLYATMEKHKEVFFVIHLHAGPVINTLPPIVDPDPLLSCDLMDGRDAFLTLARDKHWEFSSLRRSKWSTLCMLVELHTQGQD
Assay: Biochemical assay for CREBBP (1084-1701), SAMDI
Details: SAMDI, read-out: CREBBP Biochemistry IC50
parameterMeasured: IC50 (nM)

Look over these answered cases.
[
  {
    "givenSmiles": "CCn1ncc(CN(C)C(=O)c2nc(-c3ccc(O[C@@H]4CNC[C@H]4O)cc3Cl)nc3ccc(Cl)cc23)c1C",
    "measuredTarget": "CREBBP (1084-1701) (Homo sapiens, UniProt Q92793)",
    "parameterMeasured": "IC50",
    "scaleUnit": "nM",
    "recordedValue": 34
  },
  {
    "givenSmiles": "CCn1ncc(CN(C)C(=O)c2nc(-c3cc(Cl)c4c[nH]nc4c3)nc3ccc(COC)cc23)c1C",
    "measuredTarget": "CREBBP (1084-1701) (Homo sapiens, UniProt Q92793)",
    "parameterMeasured": "IC50",
    "scaleUnit": "nM",
    "recordedValue": 14
  }
]

(A) CCn1ncc(CN(C)C(=O)c2nc(-c3ccccc3OC)nc3ccc(Cl)cc23)c1C
(B) CCn1ncc(CN(C)C(=O)c2nc(-c3ccc4nc(C)n(C(=O)OC(C)(C)C)c4c3)nc3ccc(Cl)cc23)c1C
(C) CCc1ncc(CN(C)C(=O)c2nc(-c3cc(Cl)cc(NCCNC)c3)nc3ccc(Cl)cc23)n1C
(D) CCn1ncc(CN(C)C(=O)c2cc(-c3cc(NCCN(C)C)cc(C)n3)nc3ccc(Cl)cc23)c1C
(E) CCn1ncc(CN(C)C(=O)c2nc(-c3ccccc3Cl)nc3cc(Cl)ccc23)c1C
Order the records so the highest IC50 appears first and the lowest last. Please express your ranking as an ordered list of the labels.
E, B, A, D, C
(E: 45000 nM, B: 9200 nM, A: 830 nM, D: 45 nM, C: 22.8 nM)

* * *

Target: CREBBP (1084-1701) (Homo sapiens)
Construct: measured in the following biochemical assay using CREBBP (1084-1701); purchased
Assay: Biochemical assay for CREBBP (1084-1701), SAMDI
Settings: SAMDI, read-out: CREBBP Biochemistry IC50
parameterMeasured: IC50 (µM)

# example entries with known answers
[
  {
    "givenSmiles": "CCn1ncc(CN(C)C(=O)c2cc(-c3ccc(NCCNS(C)(=O)=O)c(C)n3)nc3ccc(Cl)cc23)c1C",
    "scaleUnit": "µM",
    "IC50": 0.0207
  },
  {
    "givenSmiles": "CCn1ncc(CN(C)C(=O)c2cc(-c3ccccc3Cl)nc3ccc(Cl)cc23)c1C",
    "scaleUnit": "µM",
    "IC50": 0.25
  },
  {
    "givenSmiles": "CCc1noc(CN(C)C(=O)c2cc(-c3ccc(NC4CN(C)C4)c(C)n3)nc3ccc(Cl)cc23)c1C",
    "scaleUnit": "µM",
    "IC50": 0.0191
  }
]

(1) CCn1ncc(CN(C)C(=O)c2nc(-c3ccc(C(=O)NC)cc3)nc3ccc(Cl)cc23)c1C
(2) CCn1ncc(CN(C)C(=O)c2cc(-c3cccc(Cl)c3)nc3ccc(Cl)cc23)c1C
Compare 1 and 2 by numeric IC50 and name the larger one. # answer = label of selected item
1
